assay: small-molecule microarray binders of probe aNog, primary screen, biochemical, biotinylated probe, 635/667 nm fluorescence (AID 1115); conditions: higher = more signal;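 note: probe is biotinylated aNog protein used at 0.15 µg/mL for 1 h at 4 C; z-score combines 667 nm fluorescence of each spot with its signal to noise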
Below is a list of entries, each paired with its recorded composite z-score value.
Could you keep your reply to the number by itself?

compound	composite z-score
COCCOC(=O)N1C(=O)[C@@]2(c3cc(C#CCCO)ccc31)[C@H](C(=O)N1CCN(c3ncccn3)CC1)[C@H]1C(=O)O[C@H](c3ccccc3)[C@H](c3ccccc3)N1[C@@H]2c1ccc(OCCO)cc1	0.234
C=CCNC(=O)[C@@H]1[C@H]2C(=O)O[C@H](c3ccccc3)[C@H](c3ccccc3)N2[C@H](c2ccc(OCCO)cc2)[C@@]12C(=O)Nc1ccc(C#CCNC(N)=O)cc12	-0.361
COc1ccc(C#Cc2ccc3c(c2)[C@]2(C(=O)N3)[C@H](c3ccccc3OCCO)N3[C@H](c4ccccc4)[C@H](c4ccccc4)OC(=O)[C@H]3[C@@H]2C(=O)NC[C@H](O)c2ccccc2)cc1	-0.479
CN(C)CCCC[C@@H]1NC(=O)[C@H]2C[C@@H](C(=O)NCCCCCCNC(=O)CS)[C@@H](c3cccc(OCCO)c3)N2C1=O	-0.429
CC(C)(C)OC(=O)CC[C@@]1(C(N)=O)N=C(c2ccc(OCCCO)cc2)O[C@@H]1c1ccccc1CN=[N+]=[N-]	1.52
CCCCCCc1nc(Cc2cc(OC)c(OC)c(OC)c2)c(C)c2c1[Si](C(C)C)(C(C)C)OC2	-0.0587
C=CCC(OC(C)=O)[C@@H]1[C@@H](N(Cc2cccc3ccccc23)C(=O)c2ccc(C)cc2)c2cc(OCCCO)ccc2N1C(=O)Cc1ccc2ccccc2c1 (stereo partly drawn)	0.0588
C=C[C@H](C)[C@@H](OC(=O)Nc1ccc(SC)cc1)c1ccc(OCCO)cc1	0.958

Look at this compound and give its reported composite z-score. CN(C)C(=O)[C@]1(CCS(=O)(=O)c2ccccc2)N=C(c2ccc(OCCCO)cc2)O[C@@H]1c1ccccc1CN=[N+]=[N-]
0.463
